# credit: the supplement of paper PMC9446081

Tested on: RNA polymerase
Assay Details: relative enzymatic activity vs untreated control (fraction); higher = less inhibition
Experimental Parameters: 100 µM; incubation time: 2 h at 37 C
Measurement Label: relative enzymatic activity
Respond using a number only.

Tell me reported relative enzymatic activity for O=c1[nH]c(=O)n(C2CC(O)C(CO)O2)cc1F (stereo not given) , tested with RNA polymerase.
0.84

Tell me reported relative enzymatic activity for CC1CCc2cc(F)cc3c(=O)c(C(=O)O)cn1c23 (stereo not given) , tested with RNA polymerase.
1.04

Tell me reported relative enzymatic activity for `COC1=C(N)C(=O)c2nc(-c3nc(C(=O)O)c(C)c(-c4ccc(OC)c(OC)c4O)c3N)ccc2C1=O` , tested with RNA polymerase.
0.291

Tell me reported relative enzymatic activity for `N[C@H]1CCN(c2nc3c(cc2F)c(=O)c(C(=O)O)cn3-c2ccc(F)cc2F)C1` , tested with RNA polymerase.
0.929

Tell me reported relative enzymatic activity for Cc1nnc(SCC2=C(C(=O)[O-])N3C(=O)C(NC(=O)Cn4cnnn4)C3SC2)s1.[Na+] (stereo not given) , tested with RNA polymerase.
0.961

* * *

Test Target: DNA helicase (UniProt P0ACB1)
Sequence (P0ACB1 whole entry): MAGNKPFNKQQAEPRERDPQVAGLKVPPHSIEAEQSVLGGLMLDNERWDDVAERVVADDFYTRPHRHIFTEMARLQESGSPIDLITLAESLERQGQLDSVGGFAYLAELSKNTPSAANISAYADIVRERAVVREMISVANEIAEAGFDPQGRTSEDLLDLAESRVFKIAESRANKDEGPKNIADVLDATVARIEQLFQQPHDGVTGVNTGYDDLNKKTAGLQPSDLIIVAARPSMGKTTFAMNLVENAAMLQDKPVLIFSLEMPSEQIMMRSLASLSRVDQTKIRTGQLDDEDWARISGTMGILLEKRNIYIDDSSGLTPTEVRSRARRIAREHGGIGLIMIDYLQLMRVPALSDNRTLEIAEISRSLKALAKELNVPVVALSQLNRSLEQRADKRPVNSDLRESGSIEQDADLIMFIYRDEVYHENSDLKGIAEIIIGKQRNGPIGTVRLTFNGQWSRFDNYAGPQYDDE
Assay Details: relative enzymatic activity vs untreated control (fraction); higher = less inhibition
Experimental Parameters: 100 µM; incubation time: 2 h at 37 C
Measurement Label: relative enzymatic activity

Please review the entries below; each comes with its answer.
Compound	Test Value
COC1(NC(=O)C2SC(=C(C(N)=O)C(=O)O)S2)C(=O)N2C(C(=O)O)=C(CSc3nnnn3C)CSC21 (stereo unspecified)	0.463
CN(C)[C@@H]1C(=O)[C@@H](C(N)=O)C(=O)[C@@]2(O)C(=O)[C@@H]3C(=O)c4c(O)c(NC(=O)CN5CCCC5)cc(F)c4C[C@H]3C[C@@H]12	0.103
Cn1nnnc1SCC1=C(C(=O)[O-])N2C(=O)C(NC(=O)C(O)c3ccccc3)C2SC1.[Na+] (stereo unspecified)	0.638
Cc1nnc(SCC2=C(C(=O)[O-])N3C(=O)C(NC(=O)Cn4cnnn4)C3SC2)s1.[Na+] (stereo unspecified)	0.672
CC(C)(O/N=C(\C(=O)N[C@@H]1C(=O)N2C(C(=O)O)=C(C[n+]3ccccc3)CS[C@H]12)c1csc(N)n1)C(=O)O	0.577

Any idea what relative enzymatic activity was measured for `O=c1[nH]cc(F)c(=O)[nH]1` ?
0.568

Any idea what relative enzymatic activity was measured for `Cc1cc(C(C)(C)CC(C)(C)C)ccc1OCCOCC[N+](C)(C)Cc1ccccc1.[Cl-]` ?
0.0148

Any idea what relative enzymatic activity was measured for O=C(NC(CO)C(O)c1ccc([N+](=O)[O-])cc1)C(Cl)Cl (stereo unspecified) ?
0.453

Any idea what relative enzymatic activity was measured for `O=C(O)P(=O)(O)O` ?
0.549

Any idea what relative enzymatic activity was measured for `Cl.O=C(O)c1cn(-c2ccc(F)cc2)c2cc(N3CCNCC3)c(F)cc2c1=O` ?
0.484

Any idea what relative enzymatic activity was measured for `CC[C@H]1OC(=O)C[C@@H](O)[C@H](C)[C@@H](O[C@@H]2O[C@H](C)C[C@H](N(C)C)[C@H]2O)[C@@H](CC=O)C[C@@H](C)C(=O)/C=C/[C@]2(C)O[C@H]2[C@@H]1C` ?
0.296

* * *

Test Target: Guanlyate kinase (UniProt Q0TBG1)
Sequence (Q0TBG1 whole entry): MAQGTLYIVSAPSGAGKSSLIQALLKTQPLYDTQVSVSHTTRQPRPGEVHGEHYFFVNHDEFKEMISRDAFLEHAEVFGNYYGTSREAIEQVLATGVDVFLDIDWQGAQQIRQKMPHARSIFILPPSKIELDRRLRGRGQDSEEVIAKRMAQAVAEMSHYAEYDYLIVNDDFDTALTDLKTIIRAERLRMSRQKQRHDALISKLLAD
Assay Details: relative enzymatic activity vs untreated control (fraction); higher = less inhibition
Experimental Parameters: 100 µM; incubation time: 2 h at 37 C
Where relative enzymatic activity equals or exceeds 0.9, the correct label is yes (1); where it does not, the label is no (0).

Field: example entries. Status: answers known.
Molecule	Class Name
COc1c(N2CC3CCCNC3C2)c(F)cc2c(=O)c(C(=O)O)cn(C3CC3)c12.Cl (stereo unspecified)	no (0)
CCCCCCCCCCCCCCCC[N+](C)(C)Cc1ccccc1.[Cl-]	no (0)
NCC[C@H](O)C(=O)N[C@@H]1C[C@H](N)[C@@H](O[C@H]2O[C@H](CN)[C@@H](O)[C@H](O)[C@H]2O)[C@H](O)[C@H]1O[C@H]1O[C@H](CO)[C@@H](O)[C@H](N)[C@H]1O	no (0)
CC(C)(O/N=C(\C(=O)N[C@@H]1C(=O)N2C(C(=O)O)=C(C[N+]3(CCNC(=O)c4ccc(O)c(O)c4Cl)CCCC3)CS[C@H]12)c1csc(N)n1)C(=O)O	no (0)
CC1COc2c(N3CCN(C)CC3)c(F)cc3c(=O)c(C(=O)O)cn1c23 (stereo unspecified)	yes (1)
C=CC1=C(C(=O)O)N2C(=O)[C@@H](NC(=O)/C(=N/O)c3csc(N)n3)[C@H]2SC1	yes (1)
NCC1OC(OC2C(N)CC(N)C(OC3OC(CO)C(O)C(N)C3O)C2O)C(N)CC1O (stereo unspecified)	yes (1)
CON=C1CN(c2nc3c(cc2F)c(=O)c(C(=O)O)cn3C2CC2)CC1CN.CS(=O)(=O)O (stereo unspecified)	no (0)
NCCCC[C@H](NC(=O)[C@@H](NC(=O)[C@H](Cc1c[nH]c2ccccc12)NC(=O)[C@H](CCCCN)NC(=O)[C@H](CCCCN)NC(=O)[C@H](Cc1c[nH]c2ccccc12)NC(=O)[C@H](Cc1c[nH]c2ccccc12)NC(=O)[C@H](CCCCN)NC(=O)[C@@H](N)CCCCN)C(c1ccccc1)c1ccccc1)C(N)=O	no (0)
CO/N=C1\CN(c2nc3c(cc2F)c(=O)c(C(=O)O)cn3C2CC2)C[C@@H]1CN	no (0)

State whether the measured relative enzymatic activity reaches 0.9, counting equality as reaching it, for CON=C(C(=O)NC1C(=O)N2C(C(=O)[O-])=C(COC(C)=O)CSC12)c1csc(N)n1.[Na+] (stereo unspecified)
yes (1)

State whether the measured relative enzymatic activity reaches 0.9, counting equality as reaching it, for `COc1cc(Cc2cnc(N)nc2N)cc(OC)c1OC`
yes (1)

State whether the measured relative enzymatic activity reaches 0.9, counting equality as reaching it, for `C[C@H]1[C@H](NC(=O)/C(=N\OC(C)(C)C(=O)O)c2csc(N)n2)C(=O)N1S(=O)(=O)O`
yes (1)

State whether the measured relative enzymatic activity reaches 0.9, counting equality as reaching it, for `CC[C@@H](C)CCCCC(=O)N[C@@H](CCN)C(=O)N[C@H](C(=O)N[C@@H](CCN)C(=O)N[C@H]1CCNC(=O)[C@H]([C@@H](C)O)NC(=O)[C@H](CCN)NC(=O)[C@H](CCN)NC(=O)[C@H](CC(C)C)NC(=O)[C@@H](Cc2ccccc2)NC(=O)[C@@H](CCN)NC1=O)[C@@H](C)O`
no (0)

State whether the measured relative enzymatic activity reaches 0.9, counting equality as reaching it, for `CON=C(C(=O)N[C@@H]1C(=O)N2C(C(=O)OCOC(=O)C(C)(C)C)=C(C=Cc3scnc3C)CS[C@H]12)c1csc(N)n1`
no (0)

* * *

System: DNA gyrase
Assay Details: relative enzymatic activity vs untreated control (fraction); higher = less inhibition
Experimental Parameters: 100 µM; incubation time: 2 h at 37 C
Measurement Label: relative enzymatic activity
Respond using a number only.

Cpd Smiles	Test Value
Nc1c2ccccc2nc2ccccc12	0.766
COC1=C(N)C(=O)c2nc(-c3nc(C(=O)O)c(C)c(-c4ccc(OC)c(OC)c4O)c3N)ccc2C1=O	0.611
Cl.Cl.N=C(NCCCCCCNC(=N)NC(=N)Nc1ccc(Cl)cc1)NC(=N)Nc1ccc(Cl)cc1	0.0297
N[C@@H](C(=O)N[C@@H]1C(=O)N2C(C(=O)O)=C(Cl)CC[C@H]12)c1ccccc1	0.732

Now examine the next entry.
Any idea what relative enzymatic activity was measured for `O=c1[nH]cc(F)c(=O)[nH]1` ?
0.73

* * *

Test Target: MurD (UniProt P14900)
Sequence (P14900 whole entry): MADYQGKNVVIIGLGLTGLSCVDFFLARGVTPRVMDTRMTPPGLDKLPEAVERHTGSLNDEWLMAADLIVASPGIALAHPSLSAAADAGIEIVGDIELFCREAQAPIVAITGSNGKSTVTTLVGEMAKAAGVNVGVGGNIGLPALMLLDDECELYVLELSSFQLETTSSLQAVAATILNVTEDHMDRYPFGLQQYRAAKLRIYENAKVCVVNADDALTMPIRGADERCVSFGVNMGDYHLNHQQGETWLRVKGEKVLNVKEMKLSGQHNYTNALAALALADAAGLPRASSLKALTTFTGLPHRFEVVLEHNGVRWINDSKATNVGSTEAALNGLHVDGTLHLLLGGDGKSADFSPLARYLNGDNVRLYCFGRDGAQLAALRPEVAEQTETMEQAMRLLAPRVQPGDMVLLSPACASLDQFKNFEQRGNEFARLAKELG
Assay Details: relative enzymatic activity vs untreated control (fraction); higher = less inhibition
Experimental Parameters: 100 µM; incubation time: 2 h at 37 C
Where relative enzymatic activity equals or exceeds 0.7, the correct label is fulfilled; where it does not, the label is not fulfilled.

Field: example entries. Status: answers known.
Compound	Class Name
Cc1cc(C2CCCCC2)n(O)c(=O)c1.NCCO	not fulfilled
O=C(Cn1cnnn1)NC1C(=O)N2C(C(=O)O)=C(CSc3nncs3)CSC12 (stereo not given)	not fulfilled
Cc1ccc(S(=O)(=O)O)cc1.NC1CCN(c2nc3c(cc2F)c(=O)c(C(=O)O)cn3-c2ccc(F)cc2F)C1.O (stereo not given)	fulfilled

State whether the measured relative enzymatic activity reaches 0.7, counting equality as reaching it, for CC1c2cccc(O)c2C(=O)C2=C(O)C3(O)C(=O)C(C(N)=O)=C(O)C(N(C)C)C3C(O)C21.Cl (stereo not given)
not fulfilled

State whether the measured relative enzymatic activity reaches 0.7, counting equality as reaching it, for `Cc1scc2c1N(C(=O)CN1CCN(C)CC1)c1ccccc1NC2=O.Cl`
not fulfilled
